- ASSAY COMMENT: S16 Schwann cell PMP22 intronic element beta-lactamase assay (AID 624044);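 further: 0% = DMSO and -100% = potassium clavulanate positive control; nearly all actives have a fitted effect of over 15% in size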
- DETAILS: S16 rat Schwann cells, PMP22 element beta-lactamase FRET, 24 h; at 38.3 µM (top of the series) unless noted
Records with an inconclusive call do not appear. The source made the active and inactive calls. The call rests on the fitted dose curve.
// reported ratio activity, negative = inhibition for each item listed

Field ratio activity, negative = inhibition (entry O=P(O)(O)OC[C@H](O)CO ) reads 2.95% (inactive)

Field ratio activity, negative = inhibition (entry CCOC(=O)[C@@H](N)CS ) reads -2.51% (inactive)

Field ratio activity, negative = inhibition (entry NC(=O)CC[C@@H]1NC(=O)[C@H](Cc2ccccc2)NC(=O)[C@H](Cc2ccc(O)cc2)NC(=O)[C@@H](N)CSSC[C@@H](C(=O)N2CCC[C@H]2C(=O)N[C@@H](CCCN=C(N)N)C(=O)NCC(N)=O)NC(=O)[C@H](CC(N)=O)NC1=O ) reads -1.23% (inactive)

Field ratio activity, negative = inhibition (entry COc1ccc2c(c1)OC(C)(C)C(c1ccccc1)C2c1ccc(OCCN2CCCC2)cc1 (stereo not drawn) ) reads -10.8% (inactive)

Field ratio activity, negative = inhibition (entry N=C(N)n1cccn1 ) reads -0.887% (inactive)

Field ratio activity, negative = inhibition (entry Cc1cccc(Nc2ncccc2C(=O)O)c1C ) reads 6.34% (inactive)

---

- Tested on: PC49
- ASSAY COMMENT: qHTS profiling for inhibitors of Plasmodium falciparum proliferation (AID 504749); further: nearly all actives have a fitted effect of over 60% in size
- DETAILS: P. falciparum in erythrocytes, SYBR Green DNA, 72 h; series mostly up to 28.7 µM
Inconclusive results are not listed. Calls of active or inactive are those of the source. The call rests on the fitted dose curve; in most records, active means well fitted inhibition curve with a large enough effect; inconclusive means small, poorly fitted or top-dose-only effect; inactive means flat fitted curve, though single readings scatter.
I would appreciate it if you answered using one of these outcomes: active, inactive

Record excerpt, results attached:
CC(CC=O)CCCC(C)(C)O (centres undefined) :: inactive
CC(C)(CO)[C@@H](O)C(=O)NCCC(=O)NCCSSCCNC(=O)CCNC(=O)[C@H](O)C(C)(C)CO :: inactive
Cc1c(C)c2c(c(C)c1OC(=O)CCC(=O)O)CC[C@@](C)(CCC[C@H](C)CCC[C@H](C)CCCC(C)C)O2 :: inactive
CCC(C)[C@@H](N)C(=O)O (some centres undefined) :: inactive

Query: Recorded test call requested for O=C(O)Cc1nn(Cc2ccc(Br)cc2F)c(=O)c2ccccc12
Result: inactive

Query: Recorded test call requested for O=C(O)/C=C/C(=O)Nc1ccc(S(=O)(=O)Nc2nccs2)cc1
Result: inactive

Query: Recorded test call requested for O[C@@H]([C@H](O)[C@H](O)CBr)[C@H](O)CBr
Result: inactive

Query: Recorded test call requested for CC(=O)Oc1cccc(C(=O)O)c1OC(C)=O
Result: inactive

Query: Recorded test call requested for CC(C)[C@H](N)C(=O)OCC(CO)OCn1cnc2c(=O)[nH]c(N)nc21 (some centres undefined)
Result: inactive

Query: Recorded test call requested for CNC(=O)c1c(I)c(C(=O)NCC(=O)Nc2c(I)c(C(=O)O)c(I)c(C(=O)NCCO)c2I)c(I)c(N(C)C(C)=O)c1I
Result: inactive

Query: Recorded test call requested for O=C(O)Cc1cc(I)c(Oc2ccc(O)c(I)c2)c(I)c1
Result: inactive

Query: Recorded test call requested for O=[n+]1ccn([O-])c2ccccc21
Result: inactive

Query: Recorded test call requested for NC(=O)C1c2ccccc2CCc2ccccc21
Result: inactive

Query: Recorded test call requested for COc1cc(NCCCC(C)N)c2ncccc2c1 (centres undefined)
Result: inactive

Query: Recorded test call requested for COc1cc2c(cc1OC)[C@@H](Cc1cc(OC)c(OC)c(OC)c1)[N+](C)(CCCOC(=O)CC/C=C/CCC(=O)OCCC[N+]1(C)CCc3cc(OC)c(OC)cc3[C@H]1Cc1cc(OC)c(OC)c(OC)c1)CC2 (some centres undefined)
Result: inactive

---

- ASSAY COMMENT: Drug repurposing screens with cells derived from glioblastoma tumor samples (AID 1345199); further: on the % scale 0 is the no-effect control and ±100 the full control effect; nearly all actives have a fitted effect of over 40% in size
- DETAILS: GBM patient neurospheres viability, ATP luminescence, 48 h; at 45.9 µM (top of the series); tumour line D
Results filed as inconclusive are left out.
METRIC: activity, negative = cell killing (%)
Numeric answer only, unit % assumed.

COc1ccc(/C=C/C(=O)O)cc1 :: -5.33
Nc1nc(/C(=C/CC(=O)O)C(=O)N[C@@H]2C(=O)N3C(C(=O)O)=CCS[C@H]23)cs1 :: -11.4

Field activity, negative = cell killing (entry CCCc1nc(C(C)(C)O)c(C(=O)OCc2oc(=O)oc2C)n1Cc1ccc(-c2ccccc2-c2nn[nH]n2)cc1 ) reads -13.8

Field activity, negative = cell killing (entry CC(C)[C@@H]1CC[C@@H](C)C[C@H]1O ) reads 3.66

Field activity, negative = cell killing (entry O=C(NCCNCC(O)COc1ccc(O)cc1)N1CCOCC1 (stereo not given) ) reads -3.52

---

- Tested on: DIV17
- ASSAY COMMENT: qHTS profiling for inhibitors of Plasmodium falciparum proliferation (AID 504749); further: nearly all actives have a fitted effect of over 60% in size
- DETAILS: P. falciparum in erythrocytes, SYBR Green DNA, 72 h; series mostly up to 28.7 µM
Inconclusive results are not listed. Calls of active or inactive are those of the source. Calls come from the whole dose curve; as a rule, active = well fitted inhibition curve with a large enough effect; inconclusive = small, poorly fitted or top-dose-only effect; inactive = flat fitted curve, though single readings scatter.
I would appreciate it if you answered using one of these outcomes: 1.0 (active), 0.0 (inactive)

Record excerpt, results attached:
C[Si](C)(C)O[Si](C)(C)C :: 0.0
CC(C)(Oc1ccc(C2CCCc3ccccc32)cc1)C(=O)O (stereo not drawn) :: 0.0

Query: Recorded test call requested for Nc1ncnc2c1ncn2[C@H]1CC[C@@H](CO)O1
Result: 0.0

---

- Tested on: DIV30
- ASSAY COMMENT: qHTS profiling for inhibitors of Plasmodium falciparum proliferation (AID 504749); further: nearly all actives have a fitted effect of over 60% in size
- DETAILS: P. falciparum in erythrocytes, SYBR Green DNA, 72 h; series mostly up to 28.7 µM
Records with an inconclusive call do not appear. Calls of active or inactive are those of the source. Calls come from the whole dose curve; as a rule, active = well fitted inhibition curve with a large enough effect; inconclusive = small, poorly fitted or top-dose-only effect; inactive = flat fitted curve, though single readings scatter.
I would appreciate it if you answered using one of these outcomes: t = active, f = inactive

CN(C)c1ccc(C(=C2C=CC(=[N+](C)C)C=C2)c2c(O)c(S(=O)(=O)[O-])cc3cc(S(=O)(=O)O)ccc23)cc1 :: f
O=C(O)/C=C/C(=O)Nc1ccc(S(=O)(=O)Nc2nccs2)cc1 :: f
c1ccc2c(c1)Sc1ccccc1N2CCN1CCCC1 :: t
NC(=O)C1c2ccccc2CCc2ccccc21 :: f
CS(=O)(=O)c1ccc([C@@H](O)[C@@H](COC(=O)CN)NC(=O)C(Cl)Cl)cc1 :: f
COc1ccc(C(=O)CCC(=O)O)c2ccccc12 :: f

Query: Recorded test call requested for CN1C(=O)OC(C)(C)C1=O
Result: f

Query: Recorded test call requested for CC(=O)c1ccc2c(c1)N(CCCN1CCN(CCO)CC1)c1ccccc1S2
Result: t

Query: Recorded test call requested for C=CCCCCCCCCC(=O)OC
Result: f

Query: Recorded test call requested for O=C1N=C2SCCN2C(=O)C1Cc1ccc(Cl)cc1 (stereo unspecified)
Result: f

Query: Recorded test call requested for CC(C)CCCCCCc1ccc(O)cc1
Result: f

---

- ASSAY COMMENT: qHTS assay for small molecule activators of the nuclear factor-kappa B (NF-kB) signaling pathway (AID 651749); further: % of control where 0% means no effect
- DETAILS: NF-kB-bla ME-180 cells, beta-lactamase FRET ratio, 16 h; hits give high values
Records with an inconclusive call do not appear.
METRIC: activation (%)
Numeric answer only, unit % assumed.

Example molecules with recorded activation:
CC(C)(C)CC(C)(C)c1ccc(OCCO)cc1 :: 0.716
Nc1ncnc2c1ncn2[C@H]1CC[C@@H](CO)O1 :: -1.92
ClC(Cl)Cl :: -1.06
C[Si](C)(C)O[Si](C)(C)C :: -1.12
OCl :: -0.921

Field activation (entry C[C@H](CCC(=O)O)[C@H]1CC[C@H]2[C@@H]3[C@H](O)C[C@@H]4C[C@H](O)CC[C@]4(C)[C@H]3C[C@H](O)[C@]12C ) reads -0.745

Field activation (entry CC1=CCC2CC1C2(C)C (stereo not given) ) reads -0.174

Field activation (entry CCCCC ) reads -0.668

Field activation (entry CC[C@H]1OC(=O)[C@H](C)[C@@H](O[C@H]2C[C@@](C)(OC)[C@@H](O)[C@H](C)O2)[C@H](C)[C@@H](O[C@@H]2O[C@H](C)C[C@H](N(C)C)[C@H]2O)[C@](C)(O)C[C@@H](C)CN(C)[C@H](C)[C@@H](O)[C@]1(C)O ) reads -0.197

Field activation (entry CCOC(C)OCC ) reads 0.0884

Field activation (entry CO ) reads -0.694

Field activation (entry CO/N=C(/C(=O)N[C@@H]1C(=O)N2C(C(=O)O)=C(COC(N)=O)CS[C@H]12)c1ccco1 ) reads -0.141

---

- Tested on: CP335
- ASSAY COMMENT: qHTS profiling for inhibitors of Plasmodium falciparum proliferation (AID 504749); further: nearly all actives have a fitted effect of over 60% in size
- DETAILS: P. falciparum in erythrocytes, SYBR Green DNA, 72 h; series mostly up to 28.7 µM
Inconclusive results are not listed. Activity calls are given as the source filed them. Calls follow the shape of the dose curve; as a rule, active = well fitted inhibition curve with a large enough effect; inconclusive = small, poorly fitted or top-dose-only effect; inactive = flat fitted curve, though single readings scatter.
I would appreciate it if you answered using one of these outcomes: true (active), false (inactive)

C=C1C(CCl)(CCl)C2(Cl)C(Cl)C(Cl)C1(Cl)C2(Cl)Cl (stereo unspecified) :: true
Nc1nc(=O)n([C@@H]2CS[C@H](CO)O2)cc1F :: false
O=C(O)C1=C(CSc2nnnn2CS(=O)(=O)O)CS[C@@H]2[C@H](NC(=O)[C@H](O)c3ccccc3)C(=O)N12 :: false
NCC[C@H](O)C(=O)N[C@@H]1C[C@H](N)[C@@H](O[C@H]2O[C@H](CN)CC[C@H]2N)[C@H](O)[C@H]1O[C@H]1O[C@H](CO)[C@@H](O)[C@H](N)[C@H]1O :: false
C=CC(=O)O :: false

Query: Recorded test call requested for OCCOCCOCCO
Result: false

Query: Recorded test call requested for OCC1(CO)COC(C(Cl)(Cl)Cl)OC1
Result: false

Query: Recorded test call requested for Cc1cc(C)c(NC(=O)C[C@H](CC(=O)O)c2cccc3ccccc23)c(C(=O)N2CCC3(CCCC3)CC2)c1
Result: false

meta.source: PubChem BioAssay (NCATS)
